Value source: patent US9247759B2

Entries annotated with measured inhibition at 25 µM
target: hT2R71 (Homo sapiens (Human)); assay: hT2R panel inhibition, transient HEK293 G16g44, agonist Picric Acid 10 μM; type: cell-based; conditions: HEK293, compound at 25 μM; receptor activated to EC80 with the corresponding agonist; read-out: screening result against bitter receptor 71
Sequence (P59536 whole entry): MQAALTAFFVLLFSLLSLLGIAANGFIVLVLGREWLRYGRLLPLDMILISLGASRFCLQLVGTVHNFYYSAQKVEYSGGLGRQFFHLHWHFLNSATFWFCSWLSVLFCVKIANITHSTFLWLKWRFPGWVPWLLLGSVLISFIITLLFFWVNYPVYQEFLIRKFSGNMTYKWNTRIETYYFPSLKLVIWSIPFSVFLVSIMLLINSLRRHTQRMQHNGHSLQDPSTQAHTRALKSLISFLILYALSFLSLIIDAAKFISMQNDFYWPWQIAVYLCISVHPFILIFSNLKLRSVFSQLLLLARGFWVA
RECORDED ENDPOINT: inhibition at 25 µM

{"COMPOUND": "COc1cccc(CN(Cc2ccco2)S(=O)(=O)c2ccc(C(=O)O)cc2)c1", "ENDPOINT VALUE": "40 to 60%"}
{"COMPOUND": "COc1ccc(CN(CC2CCCCC2)S(=O)(=O)c2ccc(C(=O)O)cc2)cc1", "ENDPOINT VALUE": "> 80%"}
{"COMPOUND": "COc1ccc(N(Cc2ccccc2)S(=O)(=O)c2ccc(C(=O)O)cc2)cc1", "ENDPOINT VALUE": "40 to 60%"}
{"COMPOUND": "Cc1cccc(CN(Cc2ccccc2)S(=O)(=O)c2ccc(C(=O)O)cc2)c1", "ENDPOINT VALUE": "40 to 60%"}
{"COMPOUND": "N#Cc1ccc(CN(Cc2ccccc2)S(=O)(=O)c2ccc(C(=O)O)cc2)cc1", "ENDPOINT VALUE": "60 to 80%"}
{"COMPOUND": "CCOc1ccc(CN(Cc2ccco2)S(=O)(=O)c2ccc(C(=O)O)cc2)cc1", "ENDPOINT VALUE": "20 to 40%"}
{"COMPOUND": "COc1ccc(CN(Cc2ccsc2)S(=O)(=O)c2ccc(C(=O)O)cc2)cc1", "ENDPOINT VALUE": "20 to 40%"}
{"COMPOUND": "COc1ccccc1CN(Cc1ccco1)S(=O)(=O)c1ccc(C(=O)O)cc1", "ENDPOINT VALUE": "40 to 60%"}
{"COMPOUND": "Cc1ccc(S(=O)(=O)N(Cc2ccccc2)CC2CCC(C(=O)O)CC2)cc1 (stereo not shown)", "ENDPOINT VALUE": "60 to 80%"}
{"COMPOUND": "O=C(O)c1ccc(S(=O)(=O)N(Cc2ccccc2)Cc2ccc3c(c2)OCO3)cc1", "ENDPOINT VALUE": "60 to 80%"}
{"COMPOUND": "O=C(O)C1CCC(CN(Cc2ccc(F)cc2)S(=O)(=O)c2cccs2)CC1 (stereo not shown)", "ENDPOINT VALUE": "40 to 60%"}
{"COMPOUND": "CCCOc1ccc(CN(Cc2ccco2)S(=O)(=O)c2ccc(C(=O)O)cc2)cc1", "ENDPOINT VALUE": "40 to 60%"}
{"COMPOUND": "O=C(O)c1ccc(S(=O)(=O)N(Cc2ccccc2)Cc2cccc(F)c2)cc1", "ENDPOINT VALUE": "60 to 80%"}
{"COMPOUND": "COc1ccc(CN(Cc2ccccc2)S(=O)(=O)c2ccc(-c3nn[nH]n3)cc2)cc1", "ENDPOINT VALUE": "60 to 80%"}
{"COMPOUND": "COc1ccc(CN(Cc2cccc(Cl)c2)S(=O)(=O)c2ccc(C(=O)O)cc2)cc1", "ENDPOINT VALUE": "> 80%"}
{"COMPOUND": "COc1cc(OC)c(CN(Cc2ccccc2)S(=O)(=O)c2ccc(C(=O)O)cc2)c(OC)c1", "ENDPOINT VALUE": "60 to 80%"}
{"COMPOUND": "COc1ccc(CN(Cc2ccc(C(=O)O)cc2)S(=O)(=O)c2ccc(O)cc2)cc1", "ENDPOINT VALUE": "40 to 60%"}
{"COMPOUND": "COc1ccccc1CN(Cc1ccc(C(=O)O)cc1)S(=O)(=O)c1ccc(O)cc1", "ENDPOINT VALUE": "40 to 60%"}
{"COMPOUND": "O=C(O)c1ccc(S(=O)(=O)N(Cc2ccccc2)Cc2ccccc2)cc1", "ENDPOINT VALUE": "40 to 60%"}
{"COMPOUND": "COc1ccc(CN(Cc2ccccc2Cl)S(=O)(=O)c2ccc(C(=O)O)cc2)cc1", "ENDPOINT VALUE": "60 to 80%"}
{"COMPOUND": "COc1ccc(CN(Cc2cccc(C(=O)O)c2)S(=O)(=O)c2ccc(C(=O)O)cc2)cc1", "ENDPOINT VALUE": "20 to 40%"}
{"COMPOUND": "COc1ccc(CN(Cc2ccc(C(=O)O)cc2)S(=O)(=O)c2ccccc2)cc1", "ENDPOINT VALUE": "60 to 80%"}
